system: human PCSK9 locus; assay: Secreted PCSK9 by ELISA in Huh7 cells transfected with mRNA and gRNA; assay type: cell-based; details: Huh7 cells, LTRP5-ADD-ZIM3 mRNA + gRNA scaffold 316, 50 ng mRNA:25 ng gRNA, 6 days post-transfection, normalized to total cell count
API: label(entry) gives 1 (yes) if the entry's Secreted PCSK9 is strictly smaller than 40 ng/mL; on equality or larger values it gives 0 (no).

# example entries with known answers
{"substance": "TG-06-143 (guide GAAUCAAUCCUACUGUGGAC; listed as RNA, chemistry not given here)", "tested.on": "human PCSK9 locus", "group.label": "1 (yes)"}
{"substance": "TG-06-151 (guide CUCUGCGCGUAAUCUGACGC; listed as RNA, chemistry not given here)", "tested.on": "human PCSK9 locus", "group.label": "0 (no)"}
{"substance": "TG-06-118 (guide GAGUGAAAUGGCCUGCUCUG; listed as RNA, chemistry not given here)", "tested.on": "human PCSK9 locus", "group.label": "1 (yes)"}
{"substance": "TG-06-150 (guide UCCCUCUGCGCGUAAUCUGA; listed as RNA, chemistry not given here)", "tested.on": "human PCSK9 locus", "group.label": "1 (yes)"}
{"substance": "TG-06-144 (guide GUGGGCAGCGAGGAGUCCAC; listed as RNA, chemistry not given here)", "tested.on": "human PCSK9 locus", "group.label": "1 (yes)"}
{"substance": "TG-06-148 (guide GCCGGGCCCACCUUUUCAGU; listed as RNA, chemistry not given here)", "tested.on": "human PCSK9 locus", "group.label": "0 (no)"}

Now look at this entry.
stdin: Is the reported Secreted PCSK9 for TG-06-134 (guide GAAUUCUAUGGUAGGCACAA; listed as RNA, chemistry not given here) strictly below 40 ng/mL?
stdout: 0 (no)
